// values below are ΔTm; system is Poly(dA-dT)oligonucleotide
Respond numerically; units are °C and should not be typed.

{"substanceSmiles": "Cl.Cl.N=C(N)c1ccc(-c2ccc3[nH]c(-c4ccc(C(=N)N)s4)cc3c2)cc1", "unitDescriptor": "°C", "ΔTm": 25.5}

Please examine the following record next.
Annotate the compound `Cl.Cl.N=C(N)c1ccc(-c2ccc3[nH]c(-c4ccc(C(=N)N)cc4)cc3c2)cc1` with its measured ΔTm.
23.7

---

// values below are ΔTm; system is Poly(dA-dT)oligonucleotide

{"substanceSmiles": "N=C(N)c1ccc(-c2ccc(-c3cc4ccc(C(=N)N)cc4[nH]3)cc2)cc1", "value": "> 27 °C"}
{"substanceSmiles": "Cl.Cl.N=C(N)c1ccc(-c2ccc3[nH]c(-c4ccc(C(=N)N)cc4)nc3c2)cc1", "value": "> 27 °C"}

Please examine the following record next.
State ΔTm on Poly(dA-dT)oligonucleotide. Entry: `N=C(N)c1ccc(-c2ccc(-c3nc4ccc(C(=N)N)cc4[nH]3)cc2)cc1`
> 27 °C
